# TARGET_OF_ASSAY: T1, human VEGF-A (human, UniProt P15692-4 27-191, limits assumed)
# T1 construct: also called huVEGF-A
# ASSAY: SPR (Biacore), antibody captured by anti-human Fc, VEGF-A injected
// kon lookup, one value per entry

[
  {
    "BINDER": "hBEW-1B10.1 (antibody, V domains shown, Humanized IgG made from pHybE vectors in HEK293 cells) VH: EVQLVESGGGLVQPGGSLRLSCAASGFSFSKYDMAWFRQAPGKGLEWVASITTSGVGTYYRDSVKGRFTVSRDNAKSTLYLQMNSLRAEDTAVYYCARGYGAMDAWGQGTTVTVSS VL: DIQMTQSPSSLSASVGDRVTITCKASQDIDDYLSWYQQKPGKSPKLVIYAATRLADGVPSRFSGSGSGTDYTLTISSLQPEDFATYYCLQSSSTPWTFGGGTKVEIK",
    "kon, M⁻¹ s⁻¹": "7.6e+06"
  },
  {
    "BINDER": "hBDB-4G8.6 (antibody, V domains shown, Humanized IgG made from pHybE vectors in HEK293 cells) VH: EIQLVQSGSELKKPGASVKVSCKASGYTFTNYGMYWVRQAPGQGLEYMGWINTETGKPTYADDFKGRFVFSLDTSVSTAYLQISSLKAEDTAVYFCARTNYYYRSYIFYFDYWGQGTMVTVSS VL: DTVLTQSPATLSLSPGERATLSCRASESVSTHMHWYQQKPGQAPRLLIYGASNLESGVPARFSGSGSGTDFTLTISSLEPEDFAVYFCQQSWNDPFTFGQGTKLEIK",
    "kon, M⁻¹ s⁻¹": "2.6e+07"
  },
  {
    "BINDER": "hBDB-4G8.15 (antibody, V domains shown, Humanized IgG made from pHybE vectors in HEK293 cells) VH: EVQLVESGGGLVQPGGSLRLSCAASGYTFTNYGMYWVKQAPGKGLEYMGWINTETGKPTYADDFKGRFTFSLDTSKSTAYLQMNSLRAEDTAVYFCARTNYYYRSYIFYFDYWGQGTLVTVSS VL: DTQLTQSPSSLSASVGDRVTISCRASESVSTHMHWYQQKPGKAPKLLIYGASNLESGVPSRFSGSGSGTDFTLTISSLQPEDFATYFCQQSWNDPFTFGQGTKVEIK",
    "kon, M⁻¹ s⁻¹": "2e+07"
  },
  {
    "BINDER": "hBEW-9E10.2 (antibody, V domains shown, Humanized IgG made from pHybE vectors in HEK293 cells) VH: EIQLVQSGAEVKKPGSSVKVSCKASGYTFTNYGMYWVKQAPGQGLEYMGWIDTETGRPTYADDFKGRFTFTADKSTSTAYMELSSLRSEDTAVYFCARWSGDTTGIRGPWFAYWGQGTLVTVSS VL: DIRMTQSPSSLSASVGDRVTIECLASEDIYSDLAWYQQKPGKSPKLLIYNANGLQNGVPSRFSGSGSGTDYSLTISSLQPEDVATYFCQQYNYFPGTFGQGTKLEIK",
    "kon, M⁻¹ s⁻¹": "1.6e+07"
  },
  {
    "BINDER": "hBDB-4G8.3 (antibody, V domains shown, Humanized IgG made from pHybE vectors in HEK293 cells) VH: EVQLVQSGSELKKPGASVKVSCKASGYTFTNYGMYWVRQAPGQGLEWMGWINTETGKPTYADDFKGRFVFSLDTSVSTAYLQISSLKAEDTAVYYCARTNYYYRSYIFYFDYWGQGTMVTVSS VL: DTVLTQSPATLSLSPGERATLSCRASESVSTHMHWYQQKPGQAPRLLIYGASNLESGVPARFSGSGSGTDFTLTISSLEPEDFAVYFCQQSWNDPFTFGQGTKLEIK",
    "kon, M⁻¹ s⁻¹": "1e+07"
  },
  {
    "BINDER": "hBDB-4G8.2 (antibody, V domains shown, Humanized IgG made from pHybE vectors in HEK293 cells) VH: EVQLVQSGSELKKPGASVKVSCKASGYTFTNYGMYWVRQAPGQGLEWMGWINTETGKPTYADDFKGRFVFSLDTSVSTAYLQISSLKAEDTAVYYCARTNYYYRSYIFYFDYWGQGTMVTVSS VL: ATQLTQSPSLSASVGDRVTITCRASESVSTHMHWYQQKPGKQPKLLIYGASNLESGVPSRFSGSGSGTDFTLTISSLQPEDFATYFCQQSWNDPFTFGQGTKLEIK",
    "kon, M⁻¹ s⁻¹": "1.7e+07"
  },
  {
    "BINDER": "hBEW-9A8.12 (antibody, V domains shown, Humanized IgG made from pHybE vectors in HEK293 cells) VH: EVQLVQSGAEVKKPGASVKVSCKASGYTFTNYGMYWVRQAPGQGLEWMGWINTETGKPIYADDFKGRVTMTTDTSTSTAYMELRSLRSDDTAVYYCARVDYDGSFWFAYWGQGTLVTVSS VL: DTQLTQSPSSLSASVGDRVTITCRASESVSTVIHWYQQKPGKQPKLLIHGASNLESGVPSRFSGSGSGTDFTLTISSLQPEDFATYFCQQHWNDPPTFGQGTKLEIK",
    "kon, M⁻¹ s⁻¹": "9.6e+06"
  },
  {
    "BINDER": "hBDB-4G8.13 (antibody, V domains shown, Humanized IgG made from pHybE vectors in HEK293 cells) VH: EIQLVQSGTEVKKPGESLKISCKASGYTFTNYGMYWVKQMPGKGLEYMGWINTETGKPTYADDFKGRFTFSLDKSFNTAFLQWSSLKASDTAMYFCARTNYYYRSYIFYFDYWGQGTMVTVSS VL: ETVLTQSPATLSVSPGERATLSCRASESVSTHMHWYQQKPGQAPRLLIYGASNLESGVPARFSGSGSGTDFTLTISSLQSEDFAVYFCQQSWNDPFTFGQGTRLEIK",
    "kon, M⁻¹ s⁻¹": "2.2e+07"
  },
  {
    "BINDER": "hBDB-4G8.5 (antibody, V domains shown, Humanized IgG made from pHybE vectors in HEK293 cells) VH: EIQLVQSGSELKKPGASVKVSCKASGYTFTNYGMYWVRQAPGQGLEYMGWINTETGKPTYADDFKGRFVFSLDTSVSTAYLQISSLKAEDTAVYFCARTNYYYRSYIFYFDYWGQGTMVTVSS VL: ATQLTQSPSLSASVGDRVTITCRASESVSTHMHWYQQKPGKQPKLLIYGASNLESGVPSRFSGSGSGTDFTLTISSLQPEDFATYFCQQSWNDPFTFGQGTKLEIK",
    "kon, M⁻¹ s⁻¹": "2.5e+07"
  },
  {
    "BINDER": "hBEW-9E10.3 (antibody, V domains shown, Humanized IgG made from pHybE vectors in HEK293 cells) VH: EVQLVQSGAEVKKPGSSVKVSCKASGYTFTNYGMYWVRQAPGQGLEWMGWIDTETGRPTYADDFKGRFTFTADKSTSTAYMELSSLRSEDTAVYYCARWSGDTTGIRGPWFAYWGQGTLVTVSS VL: DIRMTQSPSSLSASVGDRVTIECLASEDIYSDLAWYQQKPGKSPKLLIYNANGLQNGVPSRFSGSGSGTDYSLTISSLQPEDVATYFCQQYNYFPGTFGQGTKLEIK",
    "kon, M⁻¹ s⁻¹": "1.3e+07"
  }
]
